target: O-acyltransferase (Oryctolagus cuniculus, UniProt G1SFD9); assay: Acyl coenzyme A:cholesterol acyltransferase (ACAT), inhibition by incubation with [1-14C]oleolyl-CoA and intestinal microsomes isolated from intestinal mucosa of cholesterol-fed rabbits
Sequence (G1SFD9 1-524): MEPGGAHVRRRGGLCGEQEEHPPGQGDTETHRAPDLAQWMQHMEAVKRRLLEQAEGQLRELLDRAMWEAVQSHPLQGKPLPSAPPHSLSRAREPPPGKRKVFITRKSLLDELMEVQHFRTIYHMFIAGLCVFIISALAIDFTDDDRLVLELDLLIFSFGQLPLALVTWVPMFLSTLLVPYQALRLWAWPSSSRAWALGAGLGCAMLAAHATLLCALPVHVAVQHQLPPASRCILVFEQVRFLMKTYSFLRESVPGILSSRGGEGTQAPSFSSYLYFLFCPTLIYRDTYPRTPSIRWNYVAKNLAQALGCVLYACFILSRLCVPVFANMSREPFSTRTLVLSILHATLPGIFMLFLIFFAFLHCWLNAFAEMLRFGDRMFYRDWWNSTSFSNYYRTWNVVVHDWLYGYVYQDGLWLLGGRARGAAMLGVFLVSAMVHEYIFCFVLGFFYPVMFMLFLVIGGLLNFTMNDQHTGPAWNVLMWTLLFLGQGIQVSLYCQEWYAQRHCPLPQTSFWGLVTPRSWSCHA
pIC50: −log10 of the molar value.
observed property: pIC50

[
  {
    "chemical string": "CCCCCCCCCCCCCCCCS(=O)(=O)Nc1c(OC)cc(OC)cc1OC",
    "experimental value": 6.16
  },
  {
    "chemical string": "CCCCCCCCCCCCCCNC(=O)Nc1ccc(F)cc1F",
    "experimental value": 6.47
  },
  {
    "chemical string": "CCCCCCCC/C=C\\CCCCCCCCNC(=O)Nc1ccc(OC)cc1OC",
    "experimental value": 5.27
  },
  {
    "chemical string": "CCCCCCCCCCCCCCCCCCNC(=O)Nc1c(OC)cc(OC)cc1OC",
    "experimental value": 6.05
  },
  {
    "chemical string": "CCCCCCCCCCC(C)(C)CNC(=O)Nc1c(C(C)C)cccc1C(C)C",
    "experimental value": 7.33
  }
]

P: CCCCCCCCCCCCCCCCCCNC(=O)Oc1c(C)cccc1C
Q: CCCCCCCC/C=C\CCCCCCCCNC(=S)Nc1c(C)cccc1C
R: CCCCCCCC/C=C\CCCCCCCCNC(=O)Nc1c(Cl)cccc1Cl
S: CCCCCCCCCCC1(NC(=O)Nc2c(C(C)C)cccc2C(C)C)CCCC1
T: CCCCCCCCCCC1(NC(=O)Nc2c(CC)cccc2CC)CCCC1
Prompt line: # rank_down: sort by pIC50, max first // format: requested-order list of labels
Response line: S, T, R, P, Q

A: CCCCCCCC/C=C\CCCCCCCCNC(=O)Nc1c(C)cc(C)cc1C
B: CCCCCCNC(=O)Nc1c(C(C)C)cccc1C(C)C
Prompt line: Pick one: A or B . Which has the bigger pIC50 number? Lab log: write the label of the selected item as the result.
Response line: B
(B: 7.00, A: 5.54)

* * *

test system: Rattus norvegicus; test: In vivo change in plasma total cholesterol in cholic acid (0.3%)-cholesterol (1.5%)-peanut oil(5.5%) fed rats dosed at 0.05% of diet.
observed property: Change (%)

Observe how each entry below is paired with its result.
[
  {
    "chemical string": "CCCCCCCC/C=C\\CCCCCCCCNC(=O)Nc1ccccc1CC",
    "study system": "Rattus norvegicus",
    "experimental value": -28
  },
  {
    "chemical string": "CCCCCCCC/C=C\\CCCCCCCCNC(=O)Nc1c(CC)cccc1C(C)C",
    "study system": "Rattus norvegicus",
    "experimental value": -41
  },
  {
    "chemical string": "CCCCCCCCCCCCCCNC(=O)Nc1c(CC)cccc1CC",
    "study system": "Rattus norvegicus",
    "experimental value": -38
  }
]

a: CCCCCCCCCCCCCCCCCC(=O)Nc1c(OC)cc(OC)cc1OC
b: CCCCCCCC/C=C\CCCCCCCC(=O)Nc1c(C)cccc1C
c: CCCCCCCC/C=C\CCCCCCCC/N=C(\S)Nc1c(C)cccc1C
Prompt line: Hey, can you sort those compounds up there by Change, smallest first? // format: requested-order list of labels
Response line: b, c, a

* * *

test system: Rattus norvegicus; assay: In vivo change in plasma total cholesterol in cholic acid (0.3%)-cholesterol (1.5%)-peanut oil(5.5%) fed rats dosed at 0.05% of diet.
observed property: Change (%)

[
  {
    "chemical string": "CCCCCCCCCCC1(NC(=O)Nc2c(C(C)C)cccc2C(C)C)CCCC1",
    "observed property": "Change",
    "experimental value": -53
  }
]

A: CCCCCCCCCCNC(=O)Nc1c(C(C)C)cccc1C(C)C
B: CCCCCCCC/C=C\CCCCCCCCNC(=O)Nc1c(C)cccc1Cl
C: CCCCCCCCCCCCCCCCCCNC(=O)Nc1c(C(C)C)cccc1C(C)C
D: CCCCCCCC/C=C\CCCCCCCCNC(=O)Nc1c(CC)cccc1CC
Prompt line: # rank_down: sort by Change, max first // format: requested-order list of labels
Response line: C, D, B, A
